# Test system: CAKI-1
# assayConditions: read-out: LC50; CAKI-1, Renal, 48 h
readoutKind: CC50 (µM)
Only the number, expressed in µM, is required.

Kindly note the recorded CC50 for CC(=O)C=CSc1nc(N)nc2nc[nH]c12 [trans-AVTG, 6-(2-acetylvinylthio) guanine] , which is 13.7

====

# System: HL-60(TB)
# assayConditions: read-out: LC50, Leukemia, 48 h
readoutKind: CC50

Kindly note the recorded CC50 for CC(=O)C=CSc1nc(N)nc2nc[nH]c12 [trans-AVTG, 6-(2-acetylvinylthio) guanine] , which is > 100 µM

====

# System: 786-0
# assayConditions: read-out: LC50; 786-0, Renal, 48 h
readoutKind: CC50

Kindly note the recorded CC50 for CC(=O)C=CSc1nc(N)nc2nc[nH]c12 [trans-AVTG, 6-(2-acetylvinylthio) guanine] , which is > 100 µM
